Measured IC50 values are reported for all entries that follow.
# MEASURED_ON: TrkA (Homo sapiens (Human))
# Sequence (P04629 33-796): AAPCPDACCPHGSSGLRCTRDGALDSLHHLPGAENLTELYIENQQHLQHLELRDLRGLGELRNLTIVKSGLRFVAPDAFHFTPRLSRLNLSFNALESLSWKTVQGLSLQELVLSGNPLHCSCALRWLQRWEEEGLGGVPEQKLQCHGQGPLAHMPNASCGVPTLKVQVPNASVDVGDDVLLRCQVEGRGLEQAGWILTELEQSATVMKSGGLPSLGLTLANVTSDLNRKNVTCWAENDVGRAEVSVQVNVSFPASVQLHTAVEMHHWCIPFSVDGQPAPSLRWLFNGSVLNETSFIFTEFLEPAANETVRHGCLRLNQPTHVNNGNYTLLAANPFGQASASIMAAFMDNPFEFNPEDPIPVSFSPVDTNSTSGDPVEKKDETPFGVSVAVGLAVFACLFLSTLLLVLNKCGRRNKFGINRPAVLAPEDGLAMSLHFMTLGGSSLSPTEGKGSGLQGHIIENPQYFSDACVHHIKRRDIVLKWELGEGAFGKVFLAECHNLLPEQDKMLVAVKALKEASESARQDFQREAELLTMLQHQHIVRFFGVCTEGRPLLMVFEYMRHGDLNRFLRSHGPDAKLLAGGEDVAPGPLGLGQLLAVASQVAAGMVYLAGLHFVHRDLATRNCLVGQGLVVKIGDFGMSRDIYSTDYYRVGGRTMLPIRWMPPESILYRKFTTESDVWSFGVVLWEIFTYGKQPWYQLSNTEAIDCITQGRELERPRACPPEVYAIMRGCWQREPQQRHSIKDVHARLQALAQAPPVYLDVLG
Counter-ions that a name gives are not always drawn.

compound="COCCN1C[C@@H](NC(=O)Nc2c(C)c(-c3ccn(C)n3)nn2-c2ccccc2)[C@H](c2cc(F)cc(F)c2)C1 [Example 493]" recorded_result="< 100 nM"
compound="COCCN1C[C@@H](NC(=O)Nc2c3c(nn2-c2ccccc2)CNC3)[C@H](c2ccccc2)C1 [Example 158, dihydrochloride]" recorded_result="1000 to 10000 nM"
compound="COCCN1C[C@@H](NC(=O)Nc2c(C)c(-c3ccc(=O)n(CC(F)(F)F)c3)nn2-c2ccccc2)[C@H](c2ccc(F)c(F)c2)C1 [Example 517]" recorded_result="< 100 nM"

Item COCCN1C[C@@H](NC(=O)Nc2c(Br)c(OCC(C)(C)O)nn2-c2ccccc2)[C@H](c2ccc(F)c(F)c2)C1 [Example 358] was tested on TrkA (Homo sapiens (Human)); the reported IC50 is < 100 nM

The compound COc1ncccc1N1C[C@@H](NC(=O)Nc2c(Br)c(-c3ccccc3)nn2-c2ccccc2)[C@H](c2ccccc2)C1 [Example 247] , tested on TrkA (Homo sapiens (Human)), showed IC50 of 100 to 1000 nM

Field IC50 (TrkA (Homo sapiens (Human))), entry O=C(Nc1c2c(nn1-c1ccccc1)CCC2)N[C@@H]1CN(CC(F)(F)F)C[C@H]1c1ccc(Cl)cc1 (relative stereo) [Example 211] : < 100 nM

COCCN1C[C@@H](NC(=O)Nc2c(Cl)c(C(F)(F)CO)nn2-c2ccccc2)[C@H](c2ccc(F)c(F)c2)C1 [Example 409] tested on TrkA (Homo sapiens (Human)) gave IC50: < 100 nM

// assay TrkA (Homo sapiens (Human)), entry CC[C@@H](O)COc1nn(-c2ccccc2)c(NC(=O)N[C@@H]2CN(CCOC)C[C@H]2c2ccc(F)c(F)c2)c1C [Example 380] , IC50 value = < 100 nM

Fill in: TrkA (Homo sapiens (Human)) IC50 for CCc1nn(-c2ccccc2)c(NC(=O)N[C@@H]2CN(CCOC)C[C@H]2c2ccc(F)c(F)c2)c1C [Example 72] = < 100 nM

Query COCCN1C[C@@H](NC(=O)Nc2ccnn2C)[C@H](c2ccccc2)C1 (relative stereo) [Example 20] on TrkA (Homo sapiens (Human)); IC50 returned: 1000 to 10000 nM

Entry COCCN1C[C@@H](NC(=O)Nc2c(Br)c(-c3c(C)noc3C)nn2-c2ccccc2)[C@H](c2ccc(F)c(F)c2)C1 [Example 577] : IC50 on TrkA (Homo sapiens (Human)) = < 100 nM
